# target-under-test: T1, GST-RAB25 (1-180) (UniProt P57735 1-180)
# T1 construct: RAB25, residues 1-180, in pET41 Ek/LIC; source: E. coli BL21, purified (glutathione sepharose, Superdex 75 gel filtration)
# T1 sequence (looked up): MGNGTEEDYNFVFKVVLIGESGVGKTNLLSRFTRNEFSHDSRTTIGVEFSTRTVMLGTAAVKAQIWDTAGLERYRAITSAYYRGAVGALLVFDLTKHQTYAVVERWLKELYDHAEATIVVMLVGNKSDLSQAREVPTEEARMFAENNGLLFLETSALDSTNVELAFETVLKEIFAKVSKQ
# assay-name: fluorescence polarisation; FITC-peptide 25 nM with threefold dilutions of GST-RAB protein; 20 mM Tris pH 8.0, 150 mM NaCl, 5 mM MgCl2, 2 mM DTT, 10 µM GTP, 2% glycerol; room temperature, 30 min; apparent Kd from a sigmoidal (4-parameter) fit, 95% confidence interval
# condition-info: both partners purified
Bridge positions count the residues as written; N and C are the ends. Square brackets hold non-standard residues; d marks the D form. Ends that are not written are not given here. * marks the point of attachment. FITC = O=C1OC2(c3ccc(O)cc3Oc3cc(O)ccc32)c2ccc(NC(=S)*)cc21; S5 = C=CCCC[C@](C)(N)C(=O)O; PEG = not defined here; βAla = NCCC(=O)O
measured-parameter: log10(Kd) (log10 of the value in nM)
Answers are given as log10 of Kd in nM.

Some binders with recorded log10(Kd):
{"columns": ["binder", "log10(Kd)"],
 "data": [
  ["{FITC-PEG-βAla}-RQVRELEDYIDRLLV[S5]VME[S5]TPNILRIPR (staple 16-20; reading uncertain) [FITC-RFP8 (FIP1-derived stapled peptide, 'IME' staple)]", 2.23],
  ["{FITC-PEG-βAla}-RQVRELEDYID[S5]LLV[S5]VMEETPNILRIPR (staple 12-16; reading uncertain) [FITC-RFP7 (FIP1-derived stapled peptide, 'IIV' staple)]", 2.71],
  ["{FITC-PEG-βAla}-RINFRLQD[S5]IDR[S5]IVAIMETNPSILEVK (staple 9-13; reading uncertain) [FITC-RFP13 (FIP3-derived stapled peptide, 'IDR' staple)]", 1.60]
]}

// for each binder in input: emit log10(Kd)
1. {FITC-PEG}-EQEEINFRLRQYMDKIILAILDHNPSILEIKH (reading uncertain, also called fRFP4; FIP4 peptide; source: synthetic peptide (Fmoc solid phase, HPLC purified)) [FITC-RFP4 (unmodified FIP4 RAB-binding domain peptide)]
2. {FITC-PEG-βAla}-RINFRLQDYIDRIIV[S5]IME[S5]NPSILEVK (staple 16-20; reading uncertain) [FITC-RFP12 (FIP3-derived stapled peptide, 'IME' staple)]
3. {FITC-PEG-βAla}-RINFRLQDYID[S5]IIV[S5]IMETNPSILEVK (staple 12-16; reading uncertain) [FITC-RFP11 (FIP3-derived stapled peptide, 'IIV' staple)]

A)
[3.36, 1.48, 1.70]
